Value source: paper PMC4085797

# system name: human PPIP5K2^KD (Homo sapiens)
assay metric: Ki (µM)

1. O=P(O)(O)O[C@@H]1[C@@H](OCc2ccccc2)[C@H](OP(=O)(O)O)[C@@H](OP(=O)(O)O)[C@@H](OCc2ccccc2)[C@H]1OP(=O)(O)O [compound 10, 2,5-di-O-Bn-InsP4] :: 0.24

----------
# system name: PPIP5K2^KD (kinase domain of human PPIP5K2) (Homo sapiens)
# Construct: The kinase domain of human PPIP5K2 (PPIP5K2^KD; residues 1–366); made in house
# Sequence (O43314 1-366): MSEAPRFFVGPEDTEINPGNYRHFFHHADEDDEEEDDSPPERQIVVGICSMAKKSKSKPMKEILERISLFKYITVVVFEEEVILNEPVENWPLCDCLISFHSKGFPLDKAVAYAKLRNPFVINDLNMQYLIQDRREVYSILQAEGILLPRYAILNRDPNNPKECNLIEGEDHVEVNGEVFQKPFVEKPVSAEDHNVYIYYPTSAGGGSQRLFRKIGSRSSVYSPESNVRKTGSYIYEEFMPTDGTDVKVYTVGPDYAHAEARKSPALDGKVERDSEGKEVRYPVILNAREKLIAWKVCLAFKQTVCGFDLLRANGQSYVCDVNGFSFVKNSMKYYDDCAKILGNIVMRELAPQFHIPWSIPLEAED
# assay overview: ATPase activity of PPIP5K2KD (Pi release)
# Format: biochemical
# test context: dose-response, key of Figure 4A, n = 3; read-out: EC50, stimulation of ATPase activities
pEC50: −log10 of the molar value.
assay metric: pEC50

1. O=P(O)(O)O[C@@H]1[C@H](OCc2ccccc2)[C@H](OP(=O)(O)O)[C@@H](OP(=O)(O)O)[C@H](OP(=O)(O)OP(=O)(O)O)[C@H]1OP(=O)(O)O :: 5.59
2. O=P(O)(O)O[C@@H]1[C@@H](OP(=O)(O)OP(=O)(O)O)[C@H](OP(=O)(O)O)[C@@H](OP(=O)(O)O)[C@@H](O)[C@H]1OP(=O)(O)O :: 5.06
3. O=P(O)(O)O[C@@H]1[C@@H](OP(=O)(O)O)[C@H](OP(=O)(O)O)[C@H](OCc2ccccc2)[C@H](OP(=O)(O)O)[C@H]1OP(=O)(O)O :: 5.66
4. O=C(CP(=O)(O)O)O[C@@H]1[C@@H](OP(=O)(O)O)[C@H](OP(=O)(O)O)[C@H](OCc2ccccc2)[C@H](OP(=O)(O)O)[C@H]1OP(=O)(O)O :: 6.26
5. O=C(CP(=O)(O)O)O[C@@H]1[C@@H](OP(=O)(O)O)[C@H](OP(=O)(O)O)[C@H](OP(=O)(O)O)[C@H](OP(=O)(O)O)[C@H]1OP(=O)(O)O :: 5.92

----------
# system name: PPIP5K2^KD (kinase domain of human PPIP5K2) (Homo sapiens)
# Sequence (O43314 1-366): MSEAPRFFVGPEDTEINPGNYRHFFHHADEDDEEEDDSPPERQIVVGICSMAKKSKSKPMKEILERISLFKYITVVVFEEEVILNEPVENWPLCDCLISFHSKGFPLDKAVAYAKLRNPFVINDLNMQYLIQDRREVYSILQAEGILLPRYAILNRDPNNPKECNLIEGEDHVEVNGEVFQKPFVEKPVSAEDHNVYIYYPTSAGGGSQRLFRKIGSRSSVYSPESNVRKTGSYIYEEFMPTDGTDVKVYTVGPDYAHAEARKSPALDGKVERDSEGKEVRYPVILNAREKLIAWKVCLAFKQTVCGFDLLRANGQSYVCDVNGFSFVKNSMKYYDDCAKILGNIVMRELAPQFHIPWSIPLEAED
pIC50: −log10 of the molar value.
assay metric: pIC50

1) O=C(CP(=O)(O)O)O[C@@H]1[C@@H](OP(=O)(O)O)[C@H](OP(=O)(O)O)[C@H](OP(=O)(O)O)[C@H](OP(=O)(O)O)[C@H]1OP(=O)(O)O :: 6.85
2) O=P(O)(O)O[C@@H]1[C@H](OCc2ccccc2)[C@H](OP(=O)(O)O)[C@@H](OP(=O)(O)O)[C@H](OP(=O)(O)OP(=O)(O)O)[C@H]1OP(=O)(O)O :: 6.30
3) O=P(O)(O)O[C@@H]1[C@@H](OP(=O)(O)OP(=O)(O)O)[C@H](OP(=O)(O)O)[C@@H](OP(=O)(O)O)[C@@H](O)[C@H]1OP(=O)(O)O :: 5.62

----------
# system name: PPIP5K2^KD (kinase domain of human PPIP5K2) (Homo sapiens)
# Construct: The kinase domain of human PPIP5K2 (PPIP5K2^KD; residues 1–366); made in house
# assay overview: ATPase activity of PPIP5K2KD (Pi release)
# Format: biochemical
# test context: Figure 4A; read-out: EC50, stimulation of ATPase activity
pEC50: −log10 of the molar value.
assay metric: pEC50

1) O=P(O)(O)O[C@@H]1[C@@H](OCc2ccccc2)[C@H](OP(=O)(O)O)[C@@H](OP(=O)(O)O)[C@@H](OCc2ccccc2)[C@H]1OP(=O)(O)O :: 6.47
